The measured values listed here are drawn from ChEMBL document CHEMBL4145598.

Test system: Staphylococcus hominis
assay-name: Antimicrobial activity against Staphylococcus hominis ATCC 35982 after 18 hrs by agar dilution assay
Type: functional
run-conditions: ATCC 35982, 18 h
Reported values of MIC for individual entries
reported-endpoint: MIC (mg/L)

• COc1ccc2c(c[n+]3c4c2ccc2c5c(cc(c24)CC3)OCO5)c1OCC(=O)c1ccccc1OC(F)(F)F.[Br-] = 4
• COc1ccc2c(c[n+]3c4c2ccc2c5c(cc(c24)CC3)OCO5)c1OC(C)=O.[Cl-] = 2
• COc1ccc(CNc2c(OC)ccc3c2c[n+]2c4c3ccc3c5c(cc(c34)CC2)OCO5)cc1.[Cl-] = 8
• COc1ccc2c(c[n+]3c4c2ccc2c5c(cc(c24)CC3)OCO5)c1NC(=O)CC1CCCC1.[Cl-] = 8
• COc1ccc2c(c[n+]3c4c2ccc2c5c(cc(c24)CC3)OCO5)c1O.[Cl-] = 0.5

====

System: Staphylococcus hominis
assay-name: Antimicrobial activity against Staphylococcus hominis ATCC 35982 after 18 hrs by agar dilution assay
Type: functional
run-conditions: ATCC 35982, 18 h
reported-endpoint: MIC

* COc1ccc2c(c[n+]3c4c2ccc2c5c(cc(c24)CC3)OCO5)c1NC(=O)C12CC3CC(CC(C3)C1)C2.[Cl-] | > 64 µg/mL
* COc1ccc2c(c[n+]3c4c2ccc2c5c(cc(c24)CC3)OCO5)c1NCc1ccccc1.[Cl-] | 8 µg/mL
* COc1ccc2c(c[n+]3c4c2ccc2c5c(cc(c24)CC3)OCO5)c1OCC(=O)c1ccc(F)cc1.[Br-] | 32 µg/mL
* COc1ccc2c(c[n+]3c4c2ccc2c5c(cc(c24)CC3)OCO5)c1OCC(=O)c1ccc(C(F)(F)F)cc1.[Br-] | > 64 µg/mL
* COc1cccc(C(=O)COc2c(OC)ccc3c2c[n+]2c4c3ccc3c5c(cc(c34)CC2)OCO5)c1.[Br-] | 64 µg/mL
* CCC(=O)COc1c(OC)ccc2c1c[n+]1c3c2ccc2c4c(cc(c23)CC1)OCO4.[Br-] | > 64 µg/mL
* COc1ccc2c(c[n+]3c4c2ccc2c5c(cc(c24)CC3)OCO5)c1NCc1ccco1.[Cl-] | 32 µg/mL
* COc1ccc2c(c[n+]3c4c2ccc2c5c(cc(c24)CC3)OCO5)c1OCC(=O)C1CC1.[Br-] | > 64 µg/mL
* COc1ccc(C(=O)COc2c(OC)ccc3c2c[n+]2c4c3ccc3c5c(cc(c34)CC2)OCO5)cc1C(F)(F)F.[Br-] | 4 µg/mL

====

Test system: Staphylococcus epidermidis
assay-name: Antimicrobial activity against methicillin-sensitive Staphylococcus epidermidis ATCC 12228 after 18 hrs by agar dilution assay
Type: functional
run-conditions: ATCC 12228, 18 h
reported-endpoint: MIC (µg/mL)

• COc1ccc2c(c[n+]3c4c2ccc2c5c(cc(c24)CC3)OCO5)c1OC(C)=O.[Cl-] = 1
• COc1ccc2c(c[n+]3c4c2ccc2c5c(cc(c24)CC3)OCO5)c1OCC(=O)c1cccc(OC(F)(F)F)c1.[Br-] = 16
• COc1ccc2c(c[n+]3c4c2ccc2c5c(cc(c24)CC3)OCO5)c1N.[Cl-] = 8
• COc1ccc2c(c[n+]3c4c2ccc2c5c(cc(c24)CC3)OCO5)c1OCC(=O)c1ccc(F)cc1.[Br-] = 8
• COc1ccc2c(c[n+]3c4c2ccc2c5c(cc(c24)CC3)OCO5)c1O.[Cl-] = 0.5
• COc1ccc2c(c[n+]3c4c2ccc2c5c(cc(c24)CC3)OCO5)c1OCC(=O)c1ccc(C)cc1.[Br-] = 2
• COc1ccc2c(c[n+]3c4c2ccc2c5c(cc(c24)CC3)OCO5)c1NC(=O)c1cc(C)n(C)n1.[Cl-] = 32
• COc1ccc2c(c[n+]3c4c2ccc2c5c(cc(c24)CC3)OCO5)c1OCC(=O)C12CC3CC(CC(C3)C1)C2.[Br-] = 2
• COc1ccc2c(c[n+]3c4c2ccc2c5c(cc(c24)CC3)OCO5)c1NC(=O)CC1CCCC1.[Cl-] = 8
• C[C@H]1COc2c(N3CCN(C)CC3)c(F)cc3c(=O)c(C(=O)O)cn1c23.C[C@H]1COc2c(N3CCN(C)CC3)c(F)cc3c(=O)c(C(=O)O)cn1c23.O [LEVOFLOXACIN] = 0.06
• COc1ccc2c(c[n+]3c4c2ccc2c5c(cc(c24)CC3)OCO5)c1OCC(=O)c1ccccc1OC(F)(F)F.[Br-] = 4
• COc1ccc2c(c[n+]3c4c2ccc2c5c(cc(c24)CC3)OCO5)c1NC(=O)c1csnn1.[Cl-] = 4
• COc1ccc(CNc2c(OC)ccc3c2c[n+]2c4c3ccc3c5c(cc(c34)CC2)OCO5)cc1.[Cl-] = 8
• COc1cccc(C(=O)COc2c(OC)ccc3c2c[n+]2c4c3ccc3c5c(cc(c34)CC2)OCO5)c1.[Br-] = 16
• COc1ccc2c(c[n+]3c4c2ccc2c5c(cc(c24)CC3)OCO5)c1OCC(=O)c1ccccc1.[Br-] = 8
